Where do these numbers come from? They come from PubChem BioAssay (NCI).

Hi there, I'd appreciate the recorded growth for every entry that follows.
- Tested on: CCRF-CEM leukemia
- Run Description: NCI-60 one-dose screen, 48 h (100 = growth as untreated, 0 = no growth, -100 = all killed)
- Cond: 10 µM unless noted
- Description: Growth inhibition of the CCRF-CEM human tumor cell line is measured as a screen for anti-cancer activity. Cells are grown in 96 well plates and exposed to the test compound for 48 hours. Compounds are tested at a single concentration, which is 10^-5 M for most compounds. The reported endpoint is percent growth (GI% or GIPRCNT), where numbers from 0 - 100% represent growth inhibition, and numbers from -100% - 0 represent cell death. For example, a value of 40 represents 60% growth inhibition. […]
About 83,000 compounds went through this panel and 20% of them were active in at least one assay; those are over-represented in the sample as a whole. The source made the active and inactive calls. The calls were made as follows: active = growth percent below 10; inactive = the rest.

Compound: COc1cc2oc(-c3cccc(C(=O)Nc4ccccc4)c3)cc(=O)c2c(O)c1OC
Readout: growth
Result: 100% (inactive)
--
Compound: O=C(Nc1ccc(F)cc1)Nc1ccc(NC(=O)c2cc(Cl)nc3ccccc23)cc1
Readout: growth
Result: 41.9% (inactive)
--
Compound: OCc1cnc2ccccc2c1NC1CCCCCC1
Readout: growth
Result: 85.1% (inactive)
--
Compound: CCN1C(=O)N(CC)C2Nn3c(s/c(=C\c4ccc(OC)cc4)c3=O)=NC21 (configuration not stated)
Readout: growth
Result: 53.2% (inactive)
--
Compound: CC(=O)c1cc2c(N)c(C(=O)Nc3cccc4ccncc34)sc2nc1C
Readout: growth
Result: 101% (inactive)
--
Compound: Cc1nn(-c2ccccc2)c(Cl)c1/C=N\N=c1/sc2ccccc2n1C
Readout: growth
Result: 92.7% (inactive)

Shift focus to the following entry.
Fill blank: measured growth of the compound COc1ccc(-c2nc(S(=O)(=O)c3ccccc3)c(S(=O)CC(=O)N3CCC(C)CC3)o2)cc1 (configuration not stated) is ____.
1.85% (active)
